System: A2780 (ovarian)
Settings: A2780 (ovarian), 4,000 cells/well, treated 72 h, mean ± SD (n = 3)
Entries and their measured pIC50 follow.
The quantity pIC50 is defined as the negative base-10 logarithm of the molar concentration.

Check out these entries, answers already filled in.
Cl.O=C(c1ccccn1)c1cccc[c]1[Au-]1([Cl])[P+](c2ccccc2)(c2ccccc2)c2ccccc2[P+]1(c1ccccc1)c1ccccc1 6.82
Cl.[Cl][Au-]1([c]2ccccc2Cc2ccccn2)[P+](c2ccccc2)(c2ccccc2)c2ccccc2[P+]1(c1ccccc1)c1ccccc1 6.60
Cl.[Cl][Au-]1([c]2cccc3ccc4cccnc4c23)[P+](c2ccccc2)(c2ccccc2)c2ccccc2[P+]1(c1ccccc1)c1ccccc1 6.48
Cl.[Cl][Au-]1([c]2ccccc2Nc2ccccn2)[P+](c2ccccc2)(c2ccccc2)c2ccccc2[P+]1(c1ccccc1)c1ccccc1 6.47
[Cl-].[Cl][Au-]1([c]2ccccc2-c2ccccn2)[P+](c2ccccc2)(c2ccccc2)c2ccccc2[P+]1(c1ccccc1)c1ccccc1 6.47
Cl.O=Cc1ccc(-c2ccccn2)[c]([Au-]2([Cl])[P+](c3ccccc3)(c3ccccc3)c3ccccc3[P+]2(c2ccccc2)c2ccccc2)c1 6.57

Please fill in: pIC50 reported for Cc1ccc(-c2ccccn2)[c]([Au-]2([Cl])[P+](c3ccccc3)(c3ccccc3)c3ccccc3[P+]2(c2ccccc2)c2ccccc2)c1.Cl = 6.74
